# testSystem: human recombinant HDAC6 (Homo sapiens, UniProt Q9UBN7)
# Construct: purchased Calbiochem 382180
# measurementProtocol: HDAC enzyme activity inhibition assay (HDAC6, fluorimetric kit)
# Assay type: biochemical
# assayConditions: HDAC6 versus HDAC1
measurementKind: HDAC6 selectivity (fold)

// query Please state recorded HDAC6 selectivity (fold) (tested on human recombinant HDAC6 (Homo sapiens, UniProt Q9UBN7)) of O=C(C1CC1)N1CCN(CC(=O)N(Cc2ccc(-c3nnc(C(F)F)o3)cc2F)c2ccc(F)c(Cl)c2)CC1 [Compound 11612]
// result 535 fold

// query Again, but for CC(C)C(=O)N1CCC(C(=O)N(Cc2ccc(-c3nnc(C(F)F)o3)cc2F)c2ccccc2)CC1 [Compound 11213]
// result 781 fold

// query Again, but for O=C(C1CCN(C(=O)C(F)(F)F)CC1)N(Cc1ccc(-c2nnc(C(F)(F)F)o2)cc1F)c1ccccc1 [Compound 11206]
// result 269 fold

// query Again, but for O=C(c1ccncc1)N(Cc1ccc(-c2nnc(C(F)F)o2)cc1)c1ccccc1 [Compound 11108]
// result 1695 fold

// query Again, but for O=C(C1CCS(=O)(=O)CC1)N(Cc1ccc(-c2nnc(C(F)(F)F)o2)cc1F)c1ccc(F)c(Cl)c1 [Compound 11602]
// result 263 fold

Further cases:
// query Please state recorded HDAC6 selectivity (fold) (tested on human recombinant HDAC6 (Homo sapiens, UniProt Q9UBN7)) of CC(C)N1CCC(C(=O)N(Cc2ccc(-c3nnc(C(F)F)o3)cc2F)c2ccccc2)CC1 [Compound 11210]
// result 418 fold

// query Again, but for CS(=O)(=O)N1CCC(C(=O)N(Cc2ccc(-c3nnc(C(F)(F)F)o3)cc2F)c2ccccc2)CC1 [Compound 11207]
// result 813 fold

----------
# testSystem: human recombinant HDAC6 (Homo sapiens, UniProt Q9UBN7)
# Construct: purchased Calbiochem 382180
# Sequence (Q9UBN7 1-1215): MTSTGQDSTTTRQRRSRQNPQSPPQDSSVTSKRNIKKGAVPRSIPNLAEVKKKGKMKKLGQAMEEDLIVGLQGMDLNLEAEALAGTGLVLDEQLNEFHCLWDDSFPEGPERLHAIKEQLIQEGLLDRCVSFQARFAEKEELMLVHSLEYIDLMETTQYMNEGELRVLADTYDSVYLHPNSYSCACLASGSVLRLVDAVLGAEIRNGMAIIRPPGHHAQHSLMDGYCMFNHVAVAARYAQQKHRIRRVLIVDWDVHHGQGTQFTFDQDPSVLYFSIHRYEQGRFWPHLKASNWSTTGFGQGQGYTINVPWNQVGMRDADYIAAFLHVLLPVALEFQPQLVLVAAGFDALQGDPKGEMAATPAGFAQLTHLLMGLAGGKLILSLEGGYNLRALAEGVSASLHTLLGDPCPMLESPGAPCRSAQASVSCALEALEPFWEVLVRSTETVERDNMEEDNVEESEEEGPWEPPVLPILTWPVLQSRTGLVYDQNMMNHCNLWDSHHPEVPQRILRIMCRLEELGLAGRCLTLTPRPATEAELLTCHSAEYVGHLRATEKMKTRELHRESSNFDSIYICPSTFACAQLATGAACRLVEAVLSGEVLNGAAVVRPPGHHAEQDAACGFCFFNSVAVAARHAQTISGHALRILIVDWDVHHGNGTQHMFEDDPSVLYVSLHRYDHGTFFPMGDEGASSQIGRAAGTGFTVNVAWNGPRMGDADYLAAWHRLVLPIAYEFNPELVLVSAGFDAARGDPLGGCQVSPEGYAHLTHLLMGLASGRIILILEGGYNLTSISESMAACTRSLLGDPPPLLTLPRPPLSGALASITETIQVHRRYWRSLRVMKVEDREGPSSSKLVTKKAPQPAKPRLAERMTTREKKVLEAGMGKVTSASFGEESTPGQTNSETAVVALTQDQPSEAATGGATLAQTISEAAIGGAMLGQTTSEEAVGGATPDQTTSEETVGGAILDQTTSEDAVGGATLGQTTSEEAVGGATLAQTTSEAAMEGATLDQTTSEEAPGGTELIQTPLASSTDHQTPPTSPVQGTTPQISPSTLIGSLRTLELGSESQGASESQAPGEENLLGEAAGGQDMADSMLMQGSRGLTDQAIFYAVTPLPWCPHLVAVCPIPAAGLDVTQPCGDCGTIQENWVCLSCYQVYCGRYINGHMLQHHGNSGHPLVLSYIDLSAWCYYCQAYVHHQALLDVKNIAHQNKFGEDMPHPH
# measurementProtocol: HDAC enzyme activity inhibition assay (HDAC6, fluorimetric kit)
# Assay type: biochemical
# assayConditions: HDAC6 versus HDAC1
Label Fulfilled for high-side HDAC6 selectivity (fold) (at or above 2000 fold) and Not fulfilled for low-side HDAC6 selectivity (fold) (below it).

Reference set (5 entries):
// query Threshold query (HDAC6 selectivity (fold) >= 2000 fold) on CN1CCC(C(=O)N(Cc2ccc(-c3nnc(C(F)F)o3)cn2)c2cccc(F)c2)CC1
// result Fulfilled

// query Again, but for O=C(CN1CCCC1)N(Cc1ccc(-c2nnc(C(F)F)o2)cc1F)c1ccc(F)c(Cl)c1
// result Not fulfilled

// query Again, but for CC(C)C(=O)N1CC(C(=O)N(Cc2ccc(-c3nnc(C(F)F)o3)cc2F)c2cccc(F)c2)C1
// result Fulfilled

// query Again, but for O=C(C1CCCCC1)N(Cc1ccc(-c2nnc(C(F)(F)F)o2)cc1)c1ccccc1
// result Not fulfilled

// query Again, but for CN1CCC(C(=O)N(Cc2ccc(-c3nnc(C(F)F)o3)cn2)c2ccccc2)CC1
// result Fulfilled

Further cases:
// query Threshold query (HDAC6 selectivity (fold) >= 2000 fold) on CC(C)N1CC(C(=O)N(Cc2ccc(-c3nnc(C(F)(F)F)o3)cc2)c2ccccc2)C1
// result Not fulfilled

// query Again, but for O=C(c1ccncc1)N(Cc1ccc(-c2nnc(C(F)(F)F)o2)cn1)c1ccccc1
// result Not fulfilled

// query Again, but for CN1CC(C(=O)N(Cc2ccc(-c3nnc(C(F)F)o3)cc2F)c2ccccc2)C1
// result Fulfilled
